Measured pIC50, listed per entry.
- Test system: U-87 MG cells
- assay-info: In vitro cytotoxicity, MTT assay, U-87 MG
- Assay type: cell-based, human
- test-parameters: 48 h
pIC50: −log10 of the molar value.

{"columns": ["given-smiles", "system-name", "pIC50"],
 "data": [
  ["O=C(/C=C/c1ccc(O)c(O)c1)/C=C/c1ccc(O)c(O)c1", "U-87 MG cells", 4.04],
  ["O=C1/C(=C/c2ccc(O)c(O)c2)CCC/C1=C\\c1ccc(O)c(O)c1", "U-87 MG cells", 4.72]
]}

----------
- system-name: hGSTA4-4 (Homo sapiens)
- Sequence (O15217 1-222): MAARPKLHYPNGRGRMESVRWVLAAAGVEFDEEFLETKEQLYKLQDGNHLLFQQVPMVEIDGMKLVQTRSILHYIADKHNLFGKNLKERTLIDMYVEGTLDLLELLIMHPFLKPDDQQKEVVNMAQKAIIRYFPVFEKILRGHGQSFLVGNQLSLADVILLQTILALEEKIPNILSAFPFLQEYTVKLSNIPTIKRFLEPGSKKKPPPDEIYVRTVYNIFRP
- assay-info: hGSTA4-4 enzyme inhibition assay (CDNB-GSH conjugation, 340 nm)
- test-parameters: hGSTA4-4, compound at 100 μM, mean of three experiments; 100 µM
This listing pairs compounds with measured Enzyme Inhibition (%).
observable: Enzyme Inhibition (%)

{"columns": ["compound", "observable", "val"],
 "data": [
  ["Oc1ccc(/C=C/c2cc(O)cc(O)c2)cc1", "Enzyme Inhibition (%)", 8.87],
  ["O=c1oc2c(O)c(O)cc3c(=O)oc4c(O)c(O)cc1c4c23", "Enzyme Inhibition (%)", 95.1],
  ["COc1cc(/C=C/C(=O)/C=C/c2ccc(O)c(OC)c2)ccc1O", "Enzyme Inhibition (%)", 94.1],
  ["COc1cc2c(c(OC)c1OC)-c1ccc(OC)c(=O)cc1[C@@H](NC(C)=O)CC2", "Enzyme Inhibition (%)", 17.1],
  ["O=C(/C=C/c1ccc(O)cc1)/C=C/c1ccc(O)cc1", "Enzyme Inhibition (%)", 81.8],
  ["COc1cc(/C=C2\\CCC/C(=C\\c3ccc(O)c(OC)c3)C2=O)ccc1O", "Enzyme Inhibition (%)", 95.1],
  ["O=C1c2c(O)cc(O)cc2O[C@H](c2ccc(O)c(O)c2)[C@H]1O [Taxifolin hydrate]", "Enzyme Inhibition (%)", 40.37]
]}

----------
Each entry below lists one item and its recorded IC50 value.
- system-name: hGSTA4-4 (Homo sapiens)
- Sequence (O15217 1-222): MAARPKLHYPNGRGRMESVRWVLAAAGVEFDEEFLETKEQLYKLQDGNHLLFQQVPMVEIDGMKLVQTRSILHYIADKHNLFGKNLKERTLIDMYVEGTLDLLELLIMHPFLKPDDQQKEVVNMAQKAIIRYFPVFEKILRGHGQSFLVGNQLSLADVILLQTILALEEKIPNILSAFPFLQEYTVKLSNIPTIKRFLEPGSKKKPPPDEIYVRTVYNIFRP

{"columns": ["compound", "system-name", "unit-symbol", "IC50"],
 "data": [
  ["O=c1oc2c(O)c(O)cc3c(=O)oc4c(O)c(O)cc1c4c23 [Ellagic acid, Ellagic Acid]", "hGSTA4-4 (Homo sapiens)", "µM", 0.44],
  ["COc1cc(/C=C2\\CCC/C(=C\\c3ccc(O)c(OC)c3)C2=O)ccc1O [DM100]", "hGSTA4-4 (Homo sapiens)", "µM", 16.9],
  ["COc1cc(/C=C/C(=O)/C=C/c2ccc(O)c(OC)c2)ccc1O [DM101]", "hGSTA4-4 (Homo sapiens)", "µM", 12.7]
]}

----------
- assay-info: In vitro cytotoxicity, MTT assay, U-251 MG
- Assay type: cell-based, human
- test-parameters: human, U-251 MG cells, pH 7.4, U-251 MG cells
observable: IC50 at 48 h (µM)

{"columns": ["given-smiles", "observable", "val"],
 "data": [
  ["O=C1/C(=C/c2ccc(O)c(O)c2)CCC/C1=C\\c1ccc(O)c(O)c1", "IC50 at 48 h", 25.5],
  ["O=C(/C=C/c1ccc(O)c(O)c1)/C=C/c1ccc(O)c(O)c1", "IC50 at 48 h", 89.2]
]}

----------
- system-name: hGSTA4-4 (Homo sapiens)
- Sequence (O15217 1-222): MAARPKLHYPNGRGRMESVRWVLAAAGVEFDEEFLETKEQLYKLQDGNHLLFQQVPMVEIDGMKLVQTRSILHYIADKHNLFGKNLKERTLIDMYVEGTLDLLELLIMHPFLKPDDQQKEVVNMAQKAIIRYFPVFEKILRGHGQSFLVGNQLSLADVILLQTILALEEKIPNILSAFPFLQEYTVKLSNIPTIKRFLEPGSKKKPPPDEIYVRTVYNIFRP
- assay-info: hGSTA4-4 enzyme inhibition assay (CDNB-GSH conjugation, 340 nm)
- test-parameters: read-out: Enzyme Inhibition (%), hGSTA4-4, compound at 100 μM, mean of three experiments
Kindly note that classification relies on inhibition at 100 µM with these boundaries: range A = under 30%, range B = from 30% up to 70%, range C = 70% and over

{"columns": ["compound", "category"],
 "data": [
  ["COc1cc(/C=C2\\CCC/C(=C\\c3ccc(O)c(OC)c3)C2=O)ccc1O", "range C"],
  ["O=c1c(O)c(-c2ccc(O)c(O)c2)oc2cc(O)cc(O)c12", "range C"],
  ["COc1cc2c(c(OC)c1OC)-c1ccc(OC)c(=O)cc1[C@@H](NC(C)=O)CC2", "range A"],
  ["COc1ccc(/C=C2\\CCC/C(=C\\c3ccc(OC)cc3)C2=O)cc1", "range B"],
  ["OC[C@H]1O[C@@H](Oc2cc(O)cc(/C=C/c3ccc(O)cc3)c2)[C@H](O)[C@@H](O)[C@@H]1O", "range B"],
  ["O=C(/C=C/c1ccc(F)cc1)/C=C/c1ccc(F)cc1", "range C"],
  ["COc1ccc(/C=C/C(=O)/C=C/c2ccc(OC)c(OC)c2)cc1OC", "range B"],
  ["COc1ccc(/C=C2\\CCC/C(=C\\c3ccc(OC)c(OC)c3)C2=O)cc1OC", "range B"],
  ["O=C1c2c(O)cc(O)cc2O[C@H](c2ccc(O)c(O)c2)[C@H]1O [Taxifolin hydrate]", "range B"],
  ["COc1cc(/C=C/C(=O)/C=C/c2ccc(O)c(OC)c2)ccc1O", "range C"],
  ["O=c1oc2c(O)c(O)cc3c(=O)oc4c(O)c(O)cc1c4c23", "range C"],
  ["COc1cc(/C=C/C(=O)CC(=O)/C=C/c2ccc(O)c(OC)c2)ccc1O", "range C"],
  ["O=C(O)/C=C/c1ccc(O)cc1", "range A"],
  ["Oc1ccc(/C=C/c2cc(O)cc(O)c2)cc1", "range A"],
  ["O=C(O)c1cc(O)c(O)c(O)c1", "range A"],
  ["CC1=C(C=O)C(C)(C)CC=C1", "range A"],
  ["O=C(O[C@@H]1Cc2c(O)cc(O)cc2O[C@@H]1c1cc(O)c(O)c(O)c1)c1cc(O)c(O)c(O)c1 [Epigallocatechin gallate]", "range C"],
  ["O=C1/C(=C/c2ccc(F)cc2)CCC/C1=C\\c1ccc(F)cc1", "range C"],
  ["O=C(/C=C/c1ccc(O)c(O)c1)/C=C/c1ccc(O)c(O)c1", "range A"],
  ["O=C1C[C@@H](c2ccc(O)cc2)Oc2cc(O)cc(O)c21", "range A"],
  ["O=C(/C=C/c1ccc(O)cc1)/C=C/c1ccc(O)cc1", "range C"]
]}

Sourced from paper PMC10974579
